assay: cytotoxicity in OVCAR8 ovarian cancer cells, dose response, PAX8 project, cell-based, plate reader, dry powder samples (AID 743197); conditions: series mostly up to 35 µM
Entries with a potency or affinity are not part of this list. Calls of active or inactive are those of the source. The rule behind the calls is not given here.
Measurement type: outcome

Use these answered entries as a reference point.
{"Structure": "O=C(Nc1cccc(F)c1)N1CCCCN2[C@H](CO)[C@@H](c3ccc(C#Cc4ccccc4)cc3)[C@H]2C1", "outcome": "inactive"}
{"Structure": "C[C@@H]1CN([C@H](C)CO)C(=O)c2c(c3ccccc3n2C)-c2ccccc2CO[C@@H]1CN(C)C", "outcome": "inactive"}
{"Structure": "COc1ccccc1S(=O)(=O)N(C)C[C@@H]1Oc2cc(C#CCC3CCCC3)ccc2S(=O)(=O)N([C@@H](C)CO)C[C@@H]1C", "outcome": "inactive"}
{"Structure": "C[C@@H]1CCCCO[C@@H](CN(C)C(=O)C2CCCCC2)[C@H](C)CN([C@H](C)CO)C(=O)c2cc(NC(=O)Nc3ccc(F)cc3)ccc2O1", "outcome": "inactive"}
{"Structure": "C[C@H](O)C#Cc1cnc2c(c1)C(=O)N([C@H](C)CO)C[C@H](C)[C@H](CN(C)Cc1ccc(-c3ccccc3)cc1)O2", "outcome": "inactive"}
{"Structure": "C[C@H](CO)N1C[C@H](C)[C@@H](CN(C)Cc2ccc(C(F)(F)F)cc2)Oc2ccc(NS(=O)(=O)c3ccc(F)cc3)cc2CC1=O", "outcome": "inactive"}

Shifting focus to the compound that follows.
Inquiry: Name the recorded outcome for `C[C@@H]1CN([C@@H](C)CO)C(=O)c2cc(N(C)C)ccc2O[C@@H](C)CCCCO[C@H]1CN(C)S(=O)(=O)c1ccc(F)cc1` .
Reply text: inactive

* * *

Please go through the items and note down their activity change, negative = inhibition.
assay: HEK293 cell cytotoxicity, cytotoxicity control, plate reader, single point, cherry-pick (AID 743190); conditions: at 25 µM
This is one part of the list.
One number for each entry, in %.

Use these answered entries as a reference point.
{"Compound": "O=C(NN=Cc1ccc2c(c1)CCC2)c1ccccc1O", "Measurement type": "activity change, negative = inhibition", "Reading unit": "%", "Reported measurement": 0.295}
{"Compound": "CC(Cc1cccs1)NC(=O)c1cccc(Cl)c1 (configuration not stated)", "Measurement type": "activity change, negative = inhibition", "Reading unit": "%", "Reported measurement": -22.2}
{"Compound": "Cc1nc(-c2ccccc2)sc1-c1nnc(C2CC2)o1", "Measurement type": "activity change, negative = inhibition", "Reading unit": "%", "Reported measurement": -0.816}

# per-item lookup of activity change, negative = inhibition; items listed below
1. COc1ccc(Nc2ncnc3sc(C)cc23)cc1
2. O=C(c1noc2c1CCCC2)N1CCc2ccccc2C1
3. COc1ccc(C(=O)CCc2ccccc2O)c(OC)c1
4. COc1ccc(-c2csc(Nc3cccc(C)n3)n2)cc1OC
5. COC(=O)/C(=C1\Oc2ccc(C(C)(C)C)cc2S1)C(F)(F)F
6. COc1ccc(C2=Nc3ccccc3NC(=O)C2N(C(=O)c2cc3ccccc3[nH]2)c2ccccc2)cc1 (configuration not stated)
7. COc1ccc(N=Cc2c(O)[nH]c3ccccc23)cc1OC

Reply text:
-3.92
-12.4
14.9
4.06
0.258
-16.6
-17.2

# per-item lookup of activity change, negative = inhibition; items listed below
1. Clc1cccc(Cl)c1Cn1nnc(-c2cccs2)n1
2. C/C(=C\C(=O)c1cccnc1)Nc1ccc(C)c(C)c1

Reply text:
1: -18.7; 2: -0.923
